Tested on: NCI-H322M lung
assayComment: NCI-60 one-dose screen, 48 h (100 = growth as untreated, 0 = no growth, -100 = all killed)
experimentalConditions: 10 µM unless noted
This is part of a sample that, as a whole, favours compounds with a hit. Of some 83,000 tested, about 20% had one in any assay. The source made the active and inactive calls. Rule for the calls: active = growth percent below 10; inactive = the rest.
assayReadout: growth

- compound: "CCCCCc1ccc(S(=O)(=O)Nc2cccc(-c3csc(NC(=O)CN4CCN(C)CC4)n3)c2)cc1"
  result: "100% (inactive)"
- compound: "Cc1c(Cl)cccc1S(=O)(=O)Nc1ccc2c(c1)C(=O)N(C1CCC(=O)NC1=O)C2=O (centres undefined)"
  result: "88.8% (inactive)"
- compound: "CCO/C=N/C1=C(C#N)C(c2ccc(Cl)cc2)c2sc3c(C)cccc3c2O1 (centres undefined)"
  result: "43.6% (inactive)"
- compound: "CC(=O)C1=C(C)NC(NNC(N)=S)=NC1c1ccccc1 (centres undefined)"
  result: "101% (inactive)"
- compound: "C[C@@H](Nc1ncnc2ccc(-c3cnc(Cl)c(NS(C)(=O)=O)c3)cc12)c1ccccc1"
  result: "68.2% (inactive)"
- compound: "Cc1ccc(C2=NN(C)C(=O)C3(CCCC3)C2)cc1"
  result: "103% (inactive)"
- compound: "CCCCCc1ccc(S(=O)(=O)Nc2cc(-c3csc(NC(=O)CN4CCN(C)CC4)n3)ccc2N2CCN(C)CC2)cc1"
  result: "6.19% (active)"
- compound: "Cn1cc(-c2nc(N)nnc2-c2c[nH]c3ccc(Br)cc23)c2cc(Br)ccc21"
  result: "68.4% (inactive)"
- compound: "Cc1cc(-c2ccc(Cl)cc2)n(Cc2nnc(SCC(=O)Nc3ccc(S(N)(=O)=O)cc3)n2-c2ccc([N+](=O)[O-])cc2)n1"
  result: "96% (inactive)"

====

Tested on: MOLT-4 leukemia
assayComment: NCI-60 one-dose screen, 48 h (100 = growth as untreated, 0 = no growth, -100 = all killed)
experimentalConditions: 10 µM unless noted
Compounds without any hit were thinned out: in the full panel of roughly 83,000, 20% have a hit. The source made the active and inactive calls. Rule for the calls: active = growth percent below 10; inactive = the rest.
Reported growth is given for each of the following compounds.

- compound: "Cc1cc(-c2ccc(Cl)cc2)n(Cc2nnc(SCC(=O)Nc3ccc(S(N)(=O)=O)cc3)n2-c2ccc([N+](=O)[O-])cc2)n1"
  growth: "54.4% (inactive)"
- compound: "O=C(Nc1cccc(C(F)(F)F)c1)c1cc(-c2ccc(F)cc2F)ccc1O"
  growth: "4.43% (active)"
- compound: "N#Cc1cccc(CN2CCc3ncn(Cc4ccc(Cl)cc4)c(=O)c3C2)c1"
  growth: "43.3% (inactive)"
- compound: "COc1ccc([C@@H]2c3[nH]c4ccccc4c3C[C@H]3C(=O)N(C4CCN(CC5CCCCC5)CC4)CC(=O)N23)c(OC)c1"
  growth: "46.1% (inactive)"
- compound: "C=CCOc1cccc(/C=C2\\SC(=S)N(C3CC(=O)N(c4ccc(Br)cc4)C3=O)C2=O)c1 (stereo not drawn)"
  growth: "105% (inactive)"
- compound: "CC1(C)CC[C@]2(C(=O)N3CCOCC3)CC[C@]3(C)C(=CC[C@@H]4[C@@]5(C)C/C(=C/c6ccccn6)C(=O)C(C)(C)[C@@H]5CC[C@]43C)[C@@H]2C1"
  growth: "25% (inactive)"
- compound: "CCCSc1nc(Nc2ccc(/C(C)=N\\NC(N)=S)cc2)c(C#N)c(-c2ccccc2)n1"
  growth: "52.8% (inactive)"
- compound: "Fc1ccc(-c2cc3nc(C(Cl)Cl)nc(-c4ccco4)n3n2)cc1"
  growth: "59.7% (inactive)"
- compound: "CS(=O)(=O)Nc1cc(-c2ccc3ncc(C#N)c(N[C@H](CO)c4ccccc4)c3c2)cnc1Cl"
  growth: "14.7% (inactive)"
- compound: "N#Cc1cn(Cc2ccc(Cl)cc2Cl)c(C(=O)c2ccc(Br)cc2)c1N"
  growth: "98.9% (inactive)"
- compound: "O=C(Nc1ccc2c(ccn2Cc2ccccn2)c1)c1cnccn1"
  growth: "101% (inactive)"
- compound: "CCC1=Cc2cc(OC)ccc2OC12C=Cc1cc(OC)ccc1O2 (stereo not drawn)"
  growth: "11% (inactive)"
- compound: "Oc1ccc(CSc2nnc(-c3ccc(Cl)cc3)n2-c2ccccc2)c2cccnc12"
  growth: "28.5% (inactive)"
- compound: "COc1cc(-c2nn(C(C)(C)C)cc2-c2ccnc(NCCCNS(=O)(=O)c3ccc(C)cc3)n2)ccc1Cl"
  growth: "44.8% (inactive)"
- compound: "Nc1ccccc1NC(=O)c1ccc(NC(=O)C/C=C/c2cccnc2)cn1"
  growth: "17.3% (inactive)"
- compound: "C=CCn1c(SCC(=O)Nc2ccc(C(=O)/C=C/c3ccc(C)cc3)cc2)nnc1-c1c[nH]c2ccccc12"
  growth: "60.7% (inactive)"
- compound: "Nc1nc(-c2cccc([N+](=O)[O-])c2)c(N=Nc2ccc([N+](=O)[O-])cc2Cl)s1"
  growth: "7.78% (active)"
- compound: "COc1cc(OC)c(/C=C/S(=O)(=O)Cc2ccc(OC)c(NCC(=O)NO)c2)c(OC)c1"
  growth: "16.5% (inactive)"
